These data points were gathered from ChEMBL document CHEMBL4732086.

assay-system: CDC7/DBF4 (Cell division cycle 7-related protein kinase/Activator of S phase kinase) (Homo sapiens)
assay-protocol: Inhibition of recombinant human CDC7/Dbf4 expressed in baculovirus infected Sf9 insect cells assessed as inhibition of fluorescein labelled substrate phosphorylation in presence of ATP measured after 60 mins by TR-FRET assay
measure: IC50
Reply with a number, then the unit it belongs to.

Req: Would you mind telling me what IC50 value was observed for c1ccc(CSc2ncnc3[nH]cnc23)cc1 ?
Resp: 200 nM

Req: Would you mind telling me what IC50 value was observed for OCc1ccc(CSc2ncnc3[nH]cnc23)cc1 ?
Resp: 300 nM

Req: Would you mind telling me what IC50 value was observed for CSc1ccc(CSc2ncnc3[nH]cnc23)cc1 ?
Resp: 140 nM

Req: Would you mind telling me what IC50 value was observed for N#Cc1ccc(CSc2ncnc3[nH]cnc23)cc1 ?
Resp: 290 nM

Req: Would you mind telling me what IC50 value was observed for Fc1cccc(CSc2ncnc3[nH]cnc23)c1 ?
Resp: 360 nM

Req: Would you mind telling me what IC50 value was observed for Clc1ccccc1CSc1ncnc2[nH]cnc12 ?
Resp: 90 nM

Req: Would you mind telling me what IC50 value was observed for Clc1cccc(CCSc2ncnc3[nH]cnc23)c1 ?
Resp: 300 nM

Req: Would you mind telling me what IC50 value was observed for N#Cc1cccc(CSc2ncnc3[nH]cnc23)c1 ?
Resp: 340 nM

Req: Would you mind telling me what IC50 value was observed for Brc1cccc(CSc2ncnc3[nH]cnc23)c1 ?
Resp: 130 nM

Req: Would you mind telling me what IC50 value was observed for Brc1ccc(COc2ncnc3[nH]cnc23)cc1 ?
Resp: 910 nM

Req: Would you mind telling me what IC50 value was observed for O=[N+]([O-])c1ccc(CSc2ncnc3[nH]cnc23)cc1 ?
Resp: 130 nM

Req: Would you mind telling me what IC50 value was observed for O=C(CSc1[nH]cnc2ncnc1-2)c1ccc([N+](=O)[O-])cc1 ?
Resp: 3110 nM

Req: Would you mind telling me what IC50 value was observed for Brc1ccccc1CSc1ncnc2[nH]cnc12 ?
Resp: 270 nM

Req: Would you mind telling me what IC50 value was observed for c1ccc(CSc2ncnc3[nH]ccc23)cc1 ?
Resp: 230 nM

Req: Would you mind telling me what IC50 value was observed for FC(F)(F)c1cccc(CSc2ncnc3[nH]cnc23)c1 ?
Resp: 320 nM

Req: Would you mind telling me what IC50 value was observed for CC(=O)Nc1ccc(CSc2ncnc3[nH]cnc23)cc1 ?
Resp: 470 nM

Req: Would you mind telling me what IC50 value was observed for Clc1cccc(CSc2ncnc3[nH]cnc23)c1 ?
Resp: 140 nM

Req: Would you mind telling me what IC50 value was observed for Brc1ccc(CSc2[nH]cnc3ncnc2-3)cc1 ?
Resp: 440 nM

Req: Would you mind telling me what IC50 value was observed for COc1ccc(Sc2ncnc3[nH]cnc23)cc1 ?
Resp: 1720 nM

Req: Would you mind telling me what IC50 value was observed for Brc1ccc(Sc2ncnc3[nH]cnc23)cc1 ?
Resp: 1380 nM

Req: Would you mind telling me what IC50 value was observed for FC(F)(F)c1ccc(CSc2ncnc3[nH]cnc23)cc1 ?
Resp: 360 nM

Req: Would you mind telling me what IC50 value was observed for Fc1ccc(CCSc2ncnc3[nH]cnc23)cc1 ?
Resp: 390 nM

Req: Would you mind telling me what IC50 value was observed for Clc1ccc(CSc2[nH]cnc3ncnc2-3)cc1 ?
Resp: 180 nM

Req: Would you mind telling me what IC50 value was observed for COc1cccc(CSc2ncnc3[nH]cnc23)c1 ?
Resp: 240 nM

Req: Would you mind telling me what IC50 value was observed for Clc1ccc(CCSc2ncnc3[nH]cnc23)cc1 ?
Resp: 140 nM

Req: Would you mind telling me what IC50 value was observed for O=[N+]([O-])c1cccc(CSc2ncnc3[nH]cnc23)c1 ?
Resp: 190 nM

Req: Would you mind telling me what IC50 value was observed for c1ccc(COc2[nH]cnc3ncnc2-3)cc1 ?
Resp: 170 nM

###

assay-system: CDC7/DBF4 (Cell division cycle 7-related protein kinase/Activator of S phase kinase) (Homo sapiens) (UniProt Q9UBU7+O00311)
Sequence (O00311 whole entry, looked up): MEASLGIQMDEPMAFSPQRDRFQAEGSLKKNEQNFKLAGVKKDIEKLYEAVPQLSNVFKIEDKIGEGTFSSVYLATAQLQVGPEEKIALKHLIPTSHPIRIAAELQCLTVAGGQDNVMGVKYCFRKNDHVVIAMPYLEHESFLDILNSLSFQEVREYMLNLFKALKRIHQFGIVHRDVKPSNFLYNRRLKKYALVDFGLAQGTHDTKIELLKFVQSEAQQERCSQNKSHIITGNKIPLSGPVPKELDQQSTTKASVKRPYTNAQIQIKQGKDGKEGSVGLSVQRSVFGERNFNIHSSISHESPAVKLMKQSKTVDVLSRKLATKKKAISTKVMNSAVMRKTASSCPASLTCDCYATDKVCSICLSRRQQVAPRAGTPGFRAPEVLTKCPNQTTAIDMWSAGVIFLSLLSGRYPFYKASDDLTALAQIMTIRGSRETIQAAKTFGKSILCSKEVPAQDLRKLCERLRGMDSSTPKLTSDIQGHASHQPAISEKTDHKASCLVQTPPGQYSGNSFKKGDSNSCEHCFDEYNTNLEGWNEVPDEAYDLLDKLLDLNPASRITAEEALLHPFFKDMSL
Sequence (Q9UBU7 whole entry, looked up): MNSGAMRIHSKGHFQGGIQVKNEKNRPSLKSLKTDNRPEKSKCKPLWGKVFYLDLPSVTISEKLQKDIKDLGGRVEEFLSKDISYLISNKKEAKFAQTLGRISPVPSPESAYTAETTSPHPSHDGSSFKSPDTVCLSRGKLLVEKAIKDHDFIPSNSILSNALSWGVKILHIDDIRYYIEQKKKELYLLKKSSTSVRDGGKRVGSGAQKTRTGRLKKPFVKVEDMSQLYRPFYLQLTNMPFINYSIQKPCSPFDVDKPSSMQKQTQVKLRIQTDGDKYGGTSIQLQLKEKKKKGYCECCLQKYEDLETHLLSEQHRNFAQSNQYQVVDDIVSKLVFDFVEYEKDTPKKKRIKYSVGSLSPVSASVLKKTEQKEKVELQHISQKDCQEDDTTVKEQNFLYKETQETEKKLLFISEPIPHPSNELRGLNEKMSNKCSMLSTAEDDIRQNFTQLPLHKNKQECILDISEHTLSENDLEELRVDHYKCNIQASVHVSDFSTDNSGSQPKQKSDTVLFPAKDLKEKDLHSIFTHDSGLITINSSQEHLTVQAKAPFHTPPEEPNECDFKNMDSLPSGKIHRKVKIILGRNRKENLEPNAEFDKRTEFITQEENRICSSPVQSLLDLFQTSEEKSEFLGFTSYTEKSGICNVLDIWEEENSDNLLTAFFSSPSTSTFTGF
assay-protocol: Inhibition of recombinant human CDC7/Dbf4 expressed in baculovirus infected Sf9 insect cells assessed as inhibition of fluorescein labelled substrate phosphorylation in presence of ATP at 10 uM measured after 60 mins by TR-FRET assay
Use Criterion met when the recorded inhibition is no lower than 4%; use Criterion not met when it is lower.

Req: Could you verify whether the entry Brc1cccc(CSc2ncnc3sccc23)c1 shows inhibition of no less than 4%?
Resp: Criterion met

Req: Could you verify whether the entry Clc1ccc(CCSc2ncnc3c2ncn3CCc2ccc(Cl)cc2)cc1 shows inhibition of no less than 4%?
Resp: Criterion not met

Req: Could you verify whether the entry FC(F)(F)c1ccccc1CSc1ncnc2c1ncn2Cc1ccccc1C(F)(F)F shows inhibition of no less than 4%?
Resp: Criterion met

Req: Could you verify whether the entry Clc1cccc(CSc2ncnc3c2ncn3Cc2cccc(Cl)c2)c1 shows inhibition of no less than 4%?
Resp: Criterion met

Req: Could you verify whether the entry Clc1cccc(CCSc2ncnc3c2ncn3CCc2cccc(Cl)c2)c1 shows inhibition of no less than 4%?
Resp: Criterion met

Req: Could you verify whether the entry Fc1ccc(CCSc2ncnc3c2ncn3CCc2ccc(F)cc2)cc1 shows inhibition of no less than 4%?
Resp: Criterion met

Req: Could you verify whether the entry c1ccc(CSc2ncnc3c2ncn3Cc2ccccc2)cc1 shows inhibition of no less than 4%?
Resp: Criterion not met

Req: Could you verify whether the entry Clc1ccccc1CSc1ncnc2c1ncn2Cc1ccccc1Cl shows inhibition of no less than 4%?
Resp: Criterion met

Req: Could you verify whether the entry c1ccc(CSc2ncnc3sccc23)cc1 shows inhibition of no less than 4%?
Resp: Criterion met

###

assay-system: CDC7/DBF4 (Cell division cycle 7-related protein kinase/Activator of S phase kinase) (Homo sapiens, UniProt O00311)
assay-protocol: Inhibition of recombinant human CDC7/Dbf4 expressed in baculovirus infected Sf9 insect cells assessed as inhibition of fluorescein labelled substrate phosphorylation in presence of ATP measured after 60 mins by TR-FRET assay
measure: IC50 (nM)
Give just the numeric value; nM need not be written.

Req: Would you mind telling me what IC50 value was observed for Clc1cccc(CNc2ncnc3nc[nH]c23)c1 ?
Resp: 3060

Req: Would you mind telling me what IC50 value was observed for Clc1ccccc1CCSc1ncnc2[nH]cnc12 ?
Resp: 190

Req: Would you mind telling me what IC50 value was observed for Ic1ccc(CSc2ncnc3[nH]cnc23)cc1 ?
Resp: 300

Req: Would you mind telling me what IC50 value was observed for Clc1cccc(COc2ncnc3[nH]cnc23)c1 ?
Resp: 190

Req: Would you mind telling me what IC50 value was observed for FC(F)(F)c1ccccc1CSc1ncnc2[nH]cnc12 ?
Resp: 250

Req: Would you mind telling me what IC50 value was observed for Brc1cccc(CSc2ncnc3[nH]ccc23)c1 ?
Resp: 390

Req: Would you mind telling me what IC50 value was observed for Ic1ccccc1CSc1ncnc2[nH]cnc12 ?
Resp: 580
